# Tested on: MCF7 breast
# assay_name: NCI tumour cell line growth inhibition, 48 h
measurement_type: GI50

Below, each entry is followed by its recorded GI50 result.
In [3]: df
Out[3]:
                                   compound  measurement_type   reading
0  CN(C)CCCC1(c2ccc(F)cc2)OCc2cc(-c3cccc4[nH]ccc34)ccc21 (centres undefined)              GI50   1.55 µM
1  O=C1/C(=C/c2ccc(Cl)c(Cl)c2)CN(C(=O)CCN2CCC(=NO)CC2)C/C1=C\c1ccc(Cl)c(Cl)c1              GI50  0.333 µM
2    CCN(CC)CCCNc1ccc(C)c2sc3ccccc3c(=O)c12              GI50  0.277 µM

Turning now to a further record.
Consider the compound OC1(c2ccc(Cl)c(C(F)(F)F)c2)CCN(CCCC(c2ccc(F)cc2)c2ccc(F)cc2)CC1 and give its measured GI50.
0.796 µM

====

# Test system: NCI-H522 lung
# assay_name: NCI tumour cell line growth inhibition, 48 h
TGI vs 30 µM: at or above is y, below is n.

Does COC(=O)CC(=O)OSc1ccccc1 have a reported TGI of at least 30 µM?
n

Does C[n+]1cc2cc(O)c(O)cc2c2ccc3cc(O)c(O)cc3c21 have a reported TGI of at least 30 µM?
n

Does CCn1cc(C(=O)O)c(=O)c2cc(F)c(N3CCN(S(=O)(=O)c4cccc5ccccc45)CC3)cc21 have a reported TGI of at least 30 µM?
n

Does NS(=O)(=O)c1nnc(NC(=O)N(c2ccccc2)c2ccccc2)s1 have a reported TGI of at least 30 µM?
y

Does Cc1nn(-c2ccc(Cl)cc2)c2ncnc(N/N=C/c3ccccc3O)c12 have a reported TGI of at least 30 µM?
y

Does COC1OC(C)C(NC(=O)OCC(Cl)(Cl)Cl)C2OC(C)(C)OC12 (stereo not given) have a reported TGI of at least 30 µM?
y

Does O=C(NCc1ccccc1)c1cc2ccccc2oc1=Nc1cccc(C(F)(F)F)c1 have a reported TGI of at least 30 µM?
y

Does Cc1c2cccc-2c2cc(O)c3ccccc3c2n1-c1ccc(N(C)C)cc1 have a reported TGI of at least 30 µM?
y

Does Cc1nc(N)c(N2CCN(C#N)CC2)c(=O)[nH]1 have a reported TGI of at least 30 µM?
y

Does N#CC1(c2ccc(NC(=O)c3cccnc3NCc3ccncc3)cc2)CCCC1 have a reported TGI of at least 30 µM?
y

Does O=C1NC2=C(CCCCC/C2=N\O)C12CCCCCC2 have a reported TGI of at least 30 µM?
y

Does COc1ccc2c(c1)c1c(n2CCN2CCCCC2)-c2cccc(OC)c2CC1 have a reported TGI of at least 30 µM?
n

Does O=C1/C(=C\c2ccccc2)CN(C(=O)CCN2CCCCC2)C/C1=C/c1ccccc1 have a reported TGI of at least 30 µM?
n

Does O=C(O)c1nc2ccc(C(F)(F)F)cc2[nH]c1=O have a reported TGI of at least 30 µM?
y

Does CC(=O)NNc1nc(C)c(C(=O)NNC(=O)C(=O)Nc2ccc([N+](=O)[O-])cc2[N+](=O)[O-])s1 have a reported TGI of at least 30 µM?
y

Does Cc1ccc2c(-c3ccnc(Nc4ccc5c(c4)OCCO5)n3)c(-c3ccc(C(F)(F)F)cc3)nn2n1 have a reported TGI of at least 30 µM?
n

Does COc1ccc2c(c1)C(=O)c1c-2c(Nc2ccccc2OC)nc2ccccc12 have a reported TGI of at least 30 µM?
y

====

# System: SN12C renal
# assay_name: NCI tumour cell line growth inhibition, 48 h
measurement_type: TGI

>>> print(df.to_string())
                                   compound  subject_of_test   reading
0           Cc1ccccc1-c1nc2c(N)nc(N)nc2nc1N      SN12C renal  > 100 µM
1  [N-]=[N+]=CC(=O)C1CCCN1C(=O)c1ccccc1 (stereo unspecified)      SN12C renal   > 10 µM
2  OCc1ccc2c(c1)CC1(C2)Cc2cc3c(cc2C1O)CCC3 (stereo unspecified)      SN12C renal   23.8 µM
3  CC(C)C(Br)CCC1=CCC(Br)(Br)C1 (stereo unspecified)      SN12C renal   15.2 µM

Consider the compound Cn1c2ccccc2c2ccc3c(c21)C(=O)c1ccc2c4ccccc4n(C)c2c1C3=O and give its measured TGI.
> 100 µM

Consider the compound CCN1C(=S)N(CC)C2C1NC(=S)N2/N=C/C=C/c1ccccc1OC (stereo unspecified) and give its measured TGI.
24.8 µM

Consider the compound CCc1cccc(C)c1NC(=O)CCc1nc(=S)[nH][nH]1 and give its measured TGI.
> 100 µM

Consider the compound CSC1=Nc2c(c(C)c(C)n2COC(CO)CO)C2=NC(=O)CN12 and give its measured TGI.
> 100 µM

Consider the compound CCn1cc(C(=O)O)c(=O)c2cc(F)c(N3CCN(S(=O)(=O)c4cccc5ccccc45)CC3)cc21 and give its measured TGI.
> 100 µM

Consider the compound O=C(Nc1ccc(N=C=S)cc1Cl)c1cc(Br)cc(Br)c1O and give its measured TGI.
24.1 µM

Consider the compound CN(C)CCn1c(=O)c2ccc(NCCCN(C)CCCNc3ccc4c(=O)n(CCN(C)C)c(=O)n5c6ccc(O)cc6c(=O)c3c45)c3c(=O)c4cc(O)ccc4n(c1=O)c23 and give its measured TGI.
0.553 µM

====

# Tested on: A549 NSCLC
# assay_name: NCI tumour cell line growth inhibition, 48 h
measurement_type: TGI

>>> df
                                  compound  reading
0  CN(O)C(=O)/C=C/c1ccc(OCc2cccc(Cl)c2)cc1  63.5 µM

Consider the compound CCn1c2c(c3ccccc3c1=O)C(=O)c1ccccc1-2 and give its measured TGI.
> 100 µM

Consider the compound Clc1cccc(-c2sc(-c3cccs3)cc2Cc2cccs2)c1 and give its measured TGI.
> 10 µM

Consider the compound O=C1Oc2ccccc2C(=O)/C1=C1/C=C(c2ccccc2)SS1 and give its measured TGI.
> 100 µM

Consider the compound CC1=CC2C3(C)C(C)(C(C)=CP3(=O)c3c(C(C)C)cc(C(C)C)cc3C(C)C)C1P2(=O)c1c(C(C)C)cc(C(C)C)cc1C(C)C (configuration not stated) and give its measured TGI.
9.08 µM

Consider the compound O=C(COc1ccc(OCC(=O)N/N=C/c2ccc(-c3ccc(Cl)cc3Cl)o2)c(Cl)c1)N/N=C/c1ccc(-c2ccc(Cl)cc2Cl)o1 and give its measured TGI.
> 100 µM

Consider the compound O=C1C=C[C@H](O)[C@@]2(CO)O[C@@H]12 and give its measured TGI.
> 60.1 µM

====

# System: LOX IMVI melanoma
# assay_name: NCI tumour cell line growth inhibition, 48 h
Consider the following molecules and their measured TGI readings.
Give the quantity in µM, number only.

Below, each entry is followed by its recorded TGI result.
>>> df
                                   molecule  reading
0  COC(=O)/C=C(/C=C1/C(C#N)=C(N)N(c2ccc(Cl)cc2)C1(C)/C(=C\C(=O)OC)C(=O)OC)C(=O)OC (stereo not given)     32.4
1  CC1=CC2C3(C)C(C)(C(C)=CP3(=O)c3c(C(C)C)cc(C(C)C)cc3C(C)C)C1P2(=O)c1c(C(C)C)cc(C(C)C)cc1C(C)C (stereo not given)     3.26

Turning now to a further record.
Reported TGI for LOX IMVI melanoma, given O=C(CCc1cc(O)cc(O)c1)NCCc1cc(OCc2ccccc2)cc(OCc2ccccc2)c1 ?
32

====

# System: HOP-62 NSCLC
# assay_name: NCI tumour cell line growth inhibition, 48 h
Consider the following molecules and their measured TGI readings.
Give the quantity in µM, number only.

Below, each entry is followed by its recorded TGI result.
                           structure_smiles  measurement_type  unit_abbreviation  reading
0  CNC(=O)c1ncccc1Nc1nc(Nc2cc3c(cc2OC)CCCN3C(=O)CN(C)C)nc2[nH]ccc12               TGI                 µM     4.73
1   COc1ccc2sc3c(NCCCN)nc4ccccc4c3c(=O)c2c1               TGI                 µM     3.46

Turning now to a further record.
Reported TGI for HOP-62 NSCLC, given CCn1cc(C(=O)O)c(=O)c2cc(F)c(N3CCN(S(=O)(=O)c4cccc5ccccc45)CC3)cc21 ?
39.2

====

# Test system: MALME-3M melanoma
# assay_name: NCI tumour cell line growth inhibition, 48 h
measurement_type: TGI

Below, each entry is followed by its recorded TGI result.
>>> df
                                   compound   reading
0  CC1=NN(C(=O)Cc2ccccc2)C(=O)/C1=C\c1ccc(O)cc1  > 100 µM
1         O=C1NC2=C(CCCCC/C2=N\O)C12CCCCCC2  > 100 µM
2  CSC1=Nc2c(c(C)c(C)n2COC(CO)CO)C2=NC(=O)CN12  > 100 µM
3  O=C1Oc2ccccc2C(=O)/C1=C1/C=C(c2ccccc2)SS1  > 100 µM
4  CC(C)(CO)CNC(=O)c1ccc2[nH]c(O)c(N=Nc3ccc(S(N)(=O)=O)cc3)c2c1   > 25 µM
5  COc1cc2oc(-c3ccc(O)cc3)cc(=O)c2c(O)c1C1OC(CO)C(O)C(O)C1O (stereo not drawn)  > 100 µM
6  Nc1ncnc2c1N=C(c1ccc3c(c1)OCO3)CC(c1ccc(Cl)cc1)N2 (stereo not drawn)  > 100 µM
7  Cc1ccc2c(-c3ccnc(Nc4ccc5c(c4)OCCO5)n3)c(-c3ccc(C(F)(F)F)cc3)nn2n1   > 25 µM

Reported TGI for MALME-3M melanoma, given CCc1cccc(C)c1NC(=O)CCc1nc(=S)[nH][nH]1 ?
> 100 µM

Reported TGI for MALME-3M melanoma, given O=[N+]([O-])c1ccccc1C1SCc2nc3ccccc3n21 (stereo not drawn) ?
> 100 µM

Reported TGI for MALME-3M melanoma, given Cc1ccc2c(c1)CN1c3ccc(C)cc3CN2C1c1ccccc1O ?
> 100 µM

Reported TGI for MALME-3M melanoma, given CC1=N/C(=C\c2ccc(/C=C3/N=C(C)OC3=O)cc2)C(=O)O1 ?
> 100 µM

Reported TGI for MALME-3M melanoma, given Cc1nnc2n(c1=O)CCCN2C ?
> 100 µM
